- Tgt: UniProt Q8VGX8
- Sequence (Q8VGX8 as listed by the source): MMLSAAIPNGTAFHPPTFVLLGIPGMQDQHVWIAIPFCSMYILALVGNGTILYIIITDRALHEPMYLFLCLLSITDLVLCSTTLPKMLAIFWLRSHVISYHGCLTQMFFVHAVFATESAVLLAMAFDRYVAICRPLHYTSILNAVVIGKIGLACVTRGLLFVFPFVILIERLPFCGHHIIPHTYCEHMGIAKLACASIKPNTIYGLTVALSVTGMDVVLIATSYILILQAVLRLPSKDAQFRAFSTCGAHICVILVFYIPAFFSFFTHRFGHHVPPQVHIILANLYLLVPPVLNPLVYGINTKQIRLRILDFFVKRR
- Test Parameters: stereoisomer not certain
Answer with one of the outcomes given here: TRUE = active, FALSE = inactive

Worked examples, 5 compounds total:
{"columns": ["Compound", "Qualitative Label"],
 "data": [
  ["CCCCOC=O", "FALSE"],
  ["O=C(O)CCCCCBr", "TRUE"],
  ["O=C([O-])CCCCCCC(=O)[O-].[H+].[H+]", "FALSE"],
  ["CCCCCCCO", "FALSE"],
  ["O=C(O)CCCCBr", "FALSE"]
]}

q: Hello, I am checking results. What call was entered for CCCCCCCCCC(=O)[O-].[H+] ?
a: TRUE

q: Hello, I am checking results. What call was entered for O=C([O-])CCCCCCCC(=O)[O-].[H+].[H+] ?
a: FALSE

q: Hello, I am checking results. What call was entered for CCC(C(=O)O)c1ccccc1 (stereo unspecified) ?
a: FALSE
